B1: tRNA (parent)
chain: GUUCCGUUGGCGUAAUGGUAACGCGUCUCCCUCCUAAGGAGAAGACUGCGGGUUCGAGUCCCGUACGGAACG

Variants of: B1
Test: yeast fitness relative to wild type (ratio to wild type); higher = fitter; tRNA-Arg(CCU), competitive growth, 37 C, YPD
Variants at the floor of the assay were thinned out.
Catalogue of variants with associated yeast fitness

Worked cases, yeast fitness given:
INSERT INTO measurements (mutation, recorded_endpoint, recorded_value) VALUES
  ('C24U C27U U47A A57G A70G', 'yeast fitness', '≤ 0.5'),
  ('C24G A36C A57C A69U A70C', 'yeast fitness', '≤ 0.5'),
  ('U13C C30G C31A', 'yeast fitness', '≤ 0.5');

# input May I ask what yeast fitness has been recorded for A14C U16A G63A ?
# output ≤ 0.5

# input May I ask what yeast fitness has been recorded for C11A A43U C66U ?
# output ≤ 0.5

# input May I ask what yeast fitness has been recorded for C5A U13C C29U C55U G56A ?
# output ≤ 0.5

# input May I ask what yeast fitness has been recorded for C11U U26A C60A ?
# output ≤ 0.5

# input May I ask what yeast fitness has been recorded for G52A C66A A69U ?
# output 0.551

# input May I ask what yeast fitness has been recorded for A14G C24U A43C A70U ?
# output ≤ 0.5

# input May I ask what yeast fitness has been recorded for G6C G17A A36U C46A C49U C66A ?
# output ≤ 0.5

# input May I ask what yeast fitness has been recorded for C33G C62A G67C ?
# output ≤ 0.5

# input May I ask what yeast fitness has been recorded for U2G A43U G67C ?
# output 0.668

# input May I ask what yeast fitness has been recorded for A43U G48A U64C ?
# output 0.751

# input May I ask what yeast fitness has been recorded for G17C A69U ?
# output 0.624

# input May I ask what yeast fitness has been recorded for G10C A42C A43G ?
# output ≤ 0.5

# input May I ask what yeast fitness has been recorded for A20C A21G A69C ?
# output 0.825

# input May I ask what yeast fitness has been recorded for C34U C60G A69G ?
# output ≤ 0.5

# input May I ask what yeast fitness has been recorded for C22U C60G U64G ?
# output ≤ 0.5

# input May I ask what yeast fitness has been recorded for C5G G51A ?
# output 0.78

# input May I ask what yeast fitness has been recorded for C30U C31A A40U G56A ?
# output ≤ 0.5
